Assay: chemical genetic growth profiling, strain panel (AID 1159580);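 note: tested at 20 µM; growth read once vehicle control cultures reached saturation at 30 °C; 1 = growth at the plate median or of vehicle wells; lower values mean less growth of the strain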
Conditions: S. cerevisiae deletion strains, growth OD, locus YML016C, strain PPZ1, hits give low values
Out of some 5,500 compounds screened, about 2,000 (36%) were called active. Another 18% or so got no clear call; they are omitted. The list shows a part of the results.
MEASUREMENT_KIND: normalized growth
// response body must contain only the number

Ask: Input C#CC1(O)CCC2C3CCC4=CC(=O)CCC4(C)C3CCC21C (centres undefined) , output reported normalized growth.
Reply: 0.989

Ask: Input `NC[C@H]1O[C@H](O[C@H]2[C@H](O)[C@@H](O[C@H]3O[C@H](CO)[C@@H](O)[C@H](N)[C@H]3O)[C@H](N)C[C@@H]2N)[C@H](N)C[C@@H]1O` , output reported normalized growth.
Reply: 0.996

Ask: Input `CC(=O)N[C@@H](Cc1c[nH]c2ccccc12)C(=O)O` , output reported normalized growth.
Reply: 1.01

Ask: Input CNC(Cc1c[nH]c2ccccc12)C(=O)O (centres undefined) , output reported normalized growth.
Reply: 0.984

Ask: Input `NCCc1c[nH]c2ccccc12` , output reported normalized growth.
Reply: 0.99

Ask: Input `O=c1c(O)c(-c2ccc(O)c(O)c2)oc2cc(O)ccc12` , output reported normalized growth.
Reply: 0.974

Ask: Input C[C@]12CCC(=O)C=C1CCC1C2C(=O)C[C@@]2(C)C1CC[C@]2(O)C(=O)CO (some centres undefined) , output reported normalized growth.
Reply: 1

Ask: Input C#C[C@]1(O)CCC2C3CCC4=Cc5oncc5C[C@]4(C)C3CC[C@@]21C (some centres undefined) , output reported normalized growth.
Reply: 0.935

Ask: Input `CCOC([O-])=Nc1c[n+](N2CCOCC2)no1` , output reported normalized growth.
Reply: 1.02

Ask: Input `CC(=O)Oc1cccc2c1C(=O)c1c(OC(C)=O)cc(C(=O)O)cc1C2=O` , output reported normalized growth.
Reply: 1.01

Ask: Input `CN1CCN(CC(=O)N2c3ccccc3C(=O)Nc3cccnc32)CC1` , output reported normalized growth.
Reply: 1.01

Ask: Input `CN1CCN(CCCN2c3ccccc3Sc3ccc(C(F)(F)F)cc32)CC1` , output reported normalized growth.
Reply: 0.0583

Ask: Input `CN1CCN(CCC=C2c3ccccc3Sc3ccc(S(=O)(=O)N(C)C)cc32)CC1` , output reported normalized growth.
Reply: 1

Ask: Input `CCN(CC)CCNC(=O)c1cc(Cl)c(N)cc1OC` , output reported normalized growth.
Reply: 1.01

Ask: Input `CN[C@@H]1[C@@H](O[C@H]2O[C@H](CO)[C@@H](N)[C@H](O)[C@H]2O)O[C@H]2C[C@@H](N)[C@H](O[C@H]3[C@H](O)[C@@H](O)[C@H](N)C[C@@H]3N)O[C@@H]2[C@@H]1O` , output reported normalized growth.
Reply: 1

Ask: Input CC(NCCC(c1ccccc1)c1ccccc1)c1ccccc1 (centres undefined) , output reported normalized growth.
Reply: 0.977

Ask: Input NC[C@H]1O[C@H](O[C@H]2C(O[C@@H]3O[C@H](CO)[C@@H](O)[C@H]3O)[C@@H](O)[C@H](N)C[C@@H]2N)[C@H](N)[C@@H](O)[C@@H]1O (some centres undefined) , output reported normalized growth.
Reply: 0.992

Ask: Input C[C@]12CCC(=O)C=C1CCC1C2[C@@H](O)C[C@@]2(C)C1CC[C@]2(O)C(=O)COC(=O)CCC(=O)O (some centres undefined) , output reported normalized growth.
Reply: 1

Ask: Input `COc1cnc(NS(=O)(=O)c2ccc(N)cc2)nc1` , output reported normalized growth.
Reply: 0.993
